# EXPERIMENT: Tissue distribution of radiotracer in rats
# Assay type: in vivo, male Wistar rats
# TEST CONDITIONS: rat, spleen; 180 min, iv; read-out: Tissue distribution, spleen
READOUT TYPE: tissue uptake at 3 h (%ID/g)
Express it in %ID/g; write the number only.

input: Tell me the measured tissue uptake at 3 h of O[C@@H]1CCN(Cc2cccc([125I])c2)C[C@H]1N1CCC(c2ccccc2)CC1 (single isomer, unassigned) [(-)-[^125 I]12h] , please.
output: 1.28

###

# EXPERIMENT: Blocking experiment 2: effect of vesamicol pretreatment on radiotracer accumulation
# Format: in vivo, male Wistar rats
# TEST CONDITIONS: rat, thyroid, iv, 2 uCi, Group 2: (dl)vesamicol.HCl 1.01 umol/Kg pretreatment, 30 min postradiotracer; read-out: Accumulation after pretreatment, thyroid
# Procedure: Two separate experiments each utilizing two groups of male Wistar rats (n=3) were performed. […] At time = 0, animals in group 1 injected intravenously with vehicle (50%) aq. EtOH; 0.2 ml), while animals in group 2 each received an i.v. injection of (dl)vesamicol. HCl (1.01 umol/Kg0). After 15 min, both group were injected with the radiotracer, allowed to recover and sacrificed 30 min postradiotracer injection.
READOUT TYPE: tissue uptake at 0.5 h (%ID/g)
Return type: number; implicit unit %ID/g.

input: Item under review: O[C@@H]1CCN(Cc2cccc([125I])c2)C[C@H]1N1CCC(c2ccccc2)CC1 (single isomer, unassigned) [(-)-[^125 I]12h] . Reported tissue uptake at 0.5 h?
output: 4.56
